MMP-3 (Homo sapiens, UniProt P08254) IC50 data
Sequence (P08254 100-477): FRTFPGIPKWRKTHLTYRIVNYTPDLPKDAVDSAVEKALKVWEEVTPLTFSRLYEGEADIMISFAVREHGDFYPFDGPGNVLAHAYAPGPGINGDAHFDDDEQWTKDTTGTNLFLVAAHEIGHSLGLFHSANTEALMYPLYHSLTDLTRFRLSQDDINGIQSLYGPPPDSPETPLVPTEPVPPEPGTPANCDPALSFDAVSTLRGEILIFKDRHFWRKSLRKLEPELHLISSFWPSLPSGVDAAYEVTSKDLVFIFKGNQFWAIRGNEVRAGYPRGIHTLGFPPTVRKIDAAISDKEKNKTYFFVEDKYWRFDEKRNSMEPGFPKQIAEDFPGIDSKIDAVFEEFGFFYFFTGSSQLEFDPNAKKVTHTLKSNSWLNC
Answer format: value, then unit.

CCCCC#Cc1ccc(C(=O)CC(CCN2C(=O)c3ccccc3C2=O)C(=O)O)cc1 (stereo not drawn)    0.125 µM
CC(C)(C)[Si](C)(C)OCCCCC#Cc1ccc(C(=O)CC(CCN2C(=O)c3ccccc3C2=O)C(=O)O)cc1 (stereo not drawn) [Compound E, reference compound]    5.1 µM

Then there is this compound:
Q. Provide the reported IC50 (system: MMP-3 (Homo sapiens, UniProt P08254)) for O=C(CC(CCN1C(=O)c2ccccc2C1=O)C(=O)O)c1ccccc1 (stereo not drawn) [Compound D, reference compound]
A. 5 µM

----------
ASSAY TARGET: MMP-9 (Homo sapiens, UniProt P14780)
Sequence (P14780 107-707 limits assumed): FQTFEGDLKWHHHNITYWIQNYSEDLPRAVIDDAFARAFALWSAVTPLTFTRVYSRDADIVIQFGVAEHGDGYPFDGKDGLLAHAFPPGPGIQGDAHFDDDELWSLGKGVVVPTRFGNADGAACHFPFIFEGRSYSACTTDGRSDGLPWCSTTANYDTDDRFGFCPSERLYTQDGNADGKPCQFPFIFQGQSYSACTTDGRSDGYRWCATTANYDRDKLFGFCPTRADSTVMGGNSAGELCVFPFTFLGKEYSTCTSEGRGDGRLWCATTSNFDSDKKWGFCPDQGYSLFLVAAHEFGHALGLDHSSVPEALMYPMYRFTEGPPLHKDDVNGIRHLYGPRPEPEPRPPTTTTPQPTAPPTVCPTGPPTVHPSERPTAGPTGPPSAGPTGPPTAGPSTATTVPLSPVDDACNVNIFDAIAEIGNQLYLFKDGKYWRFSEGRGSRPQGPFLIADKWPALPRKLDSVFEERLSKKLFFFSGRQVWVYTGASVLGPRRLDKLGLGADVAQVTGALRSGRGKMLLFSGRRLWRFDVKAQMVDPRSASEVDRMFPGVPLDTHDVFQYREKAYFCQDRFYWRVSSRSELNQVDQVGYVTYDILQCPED
The compounds listed here are annotated with their pIC50.
Please treat pIC50 as minus the base-10 logarithm of the molar concentration.

Before answering, review these 5 worked examples.
O=C(CC(CCN1C(=O)c2ccccc2C1=O)C(=O)O)c1ccc(C#CCO)cc1 (stereo not shown) [Example 6]    7.12
CCCCCCCOc1ccc(C(=O)CC(CCN2C(=O)c3ccccc3C2=O)C(=O)O)cc1 (stereo not shown) [Example 10]    7.07
CC(C)(C)[Si](C)(C)OCCCCC#Cc1ccc(C(=O)CC(CCN2C(=O)c3ccccc3C2=O)C(=O)O)cc1 (stereo not shown) [Compound E, reference compound]    5.30
O=C(CC(CCN1C(=O)c2ccccc2C1=O)C(=O)O)c1ccc(OCCOCc2ccccc2)cc1 (stereo not shown) [Example 13]    6.45
CCCCCCOc1ccc(C(=O)CC(CCN2C(=O)c3ccccc3C2=O)C(=O)O)cc1 (stereo not shown) [Example 11]    7.17

Q. GET pIC50 | system: MMP-9 (Homo sapiens, UniProt P14780) | item: O=C(CC(CCCc1ccccc1)C(=O)O)c1ccc(C#CCO)cc1 (racemic) [Example 1]
A. 5.73

Q. Report the value of pIC50 obtained on MMP-9 (Homo sapiens, UniProt P14780) for CCCCC#Cc1ccc(C(=O)CC(CCCc2ccccc2)C(=O)O)cc1 (stereo not shown) [Example 2] .
A. 5.80

Q. Report value: pIC50, system: MMP-9 (Homo sapiens, UniProt P14780), compound: O=C(CC(CCN1C(=O)c2ccccc2C1=O)C(=O)O)c1ccc(Br)cc1 (stereo not shown) [Compound B, reference compound]
A. 5.84

Q. Report its pIC50 with MMP-9 (Homo sapiens, UniProt P14780) as the test system: CCCCC#Cc1ccc(C(=O)CC(CCN2C(=O)c3ccccc3C2=O)C(=O)O)cc1 (stereo not shown) [Example 4]
A. 7.70

----------
Recorded below: pIC50, system MMP-3 (Homo sapiens, UniProt P08254).
Conceptually, pIC50 converts a concentration in mol/L into minus its log10.

Solved entries:
O=C(CC(CCN1C(=O)c2ccccc2C1=O)C(=O)O)c1ccc(C#CCCCCO)cc1 (centres unmarked)    6.06
CCCCC#Cc1ccc(C(=O)CC(CCCc2ccccc2)C(=O)O)cc1 (centres unmarked)    5.73
O=C(CC(CCN1C(=O)c2ccccc2C1=O)C(=O)O)c1ccc(OCCOCc2ccccc2)cc1 (centres unmarked)    7.09
CCCCCCOc1ccc(C(=O)CC(CCN2C(=O)c3ccccc3C2=O)C(=O)O)cc1 (centres unmarked)    6.94
CCCCCCc1ccc(C(=O)CC(CCN2C(=O)c3ccccc3C2=O)C(=O)O)cc1 (centres unmarked)    5.98
O=C(CC(CCCc1ccccc1)C(=O)O)c1ccc(C#CCO)cc1 (racemic)    5.48

Q. Report measured pIC50 on MMP-3 (Homo sapiens, UniProt P08254); entry: O=C(CC(CCN1C(=O)c2ccccc2C1=O)C(=O)O)c1ccc(C#CCO)cc1 (centres unmarked)
A. 6.25

Q. Quote MMP-3 (Homo sapiens, UniProt P08254) pIC50 for entry CCCCCCCOc1ccc(C(=O)CC(CCN2C(=O)c3ccccc3C2=O)C(=O)O)cc1 (centres unmarked) .
A. 7.21

----------
ASSAY TARGET: MMP-2 (Homo sapiens)
Sequence (P08253 110-660): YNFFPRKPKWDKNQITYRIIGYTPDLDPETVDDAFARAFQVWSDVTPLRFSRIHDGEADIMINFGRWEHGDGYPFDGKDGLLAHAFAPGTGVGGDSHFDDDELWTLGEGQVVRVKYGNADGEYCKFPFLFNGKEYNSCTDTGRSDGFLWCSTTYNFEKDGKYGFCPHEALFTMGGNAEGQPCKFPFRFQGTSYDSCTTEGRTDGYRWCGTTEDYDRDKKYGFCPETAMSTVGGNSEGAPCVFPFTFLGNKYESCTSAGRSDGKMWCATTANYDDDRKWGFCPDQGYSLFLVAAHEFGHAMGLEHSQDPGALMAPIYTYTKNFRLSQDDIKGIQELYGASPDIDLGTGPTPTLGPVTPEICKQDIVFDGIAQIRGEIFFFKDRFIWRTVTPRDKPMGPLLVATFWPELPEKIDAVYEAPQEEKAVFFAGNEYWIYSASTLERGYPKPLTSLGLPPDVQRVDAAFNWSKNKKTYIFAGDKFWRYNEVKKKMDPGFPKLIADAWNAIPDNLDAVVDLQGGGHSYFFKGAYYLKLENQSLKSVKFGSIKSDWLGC
MEASUREMENT PROTOCOL: P218 quenched fluorescence assay (MMP Microfluorometric Profiling Assay), MMP-2
Assay type: biochemical
EXPERIMENTAL READOUT: IC50

CCCCCCOc1ccc(C(=O)CC(CCN2C(=O)c3ccccc3C2=O)C(=O)O)cc1 (stereo not drawn) [Example 11]    0.079 µM
O=C(CC(CCN1C(=O)c2ccccc2C1=O)C(=O)O)c1ccc(C#CCO)cc1 (stereo not drawn) [Example 6]    0.13 µM

From here, focus on the item given below.
Q. Report measured IC50; entry is O=C(CC(CCN1C(=O)c2ccccc2C1=O)C(=O)O)c1ccc(C#CCCCCO)cc1 (stereo not drawn) [Example 5]
A. 0.092 µM

----------
ASSAY TARGET: MMP-9 (Homo sapiens)
Quick reference for IC50 among some compounds

These solved cases illustrate the format of a correct answer.
O=C(CC(CCN1C(=O)c2ccccc2C1=O)C(=O)O)c1ccc(C#CCCCCO)cc1 (stereo not shown)    150 nM
O=C(CC(CCN1C(=O)c2ccccc2C1=O)C(=O)O)c1ccccc1 (stereo not shown) [Compound D, reference compound]    1000 nM
O=C(CC(CCCc1ccccc1)C(=O)O)c1ccc(C#CCCCCO)cc1 (stereo not shown)    4350 nM

Next:
Q. Provide measured IC50 on MMP-9 (Homo sapiens) for CCCCCCc1ccc(C(=O)CC(CCN2C(=O)c3ccccc3C2=O)C(=O)O)cc1 (stereo not shown) please.
A. 400 nM
